# pEC50 per record follows
test system: SARS-COV-2; assay: microbe, parasite or virus in culture; type: cell-based; conditions: Severe acute respiratory syndrome coronavirus 2; SARS-COV-2 viral replication (YFP); read-out: EC50
pEC50: −log10 of the molar value.
quantity_name: pEC50

INSERT INTO results (compound, target_or_system, observed_measurement) VALUES
  ('C[N+](C)(C)CCOP(=O)([O-])OP(=O)([O-])OC[C@H]1O[C@@H](n2ccc(N)nc2=O)[C@H](O)[C@@H]1O.[Na+] [Example C1, Citicoline sodium, reference compound]', 'SARS-COV-2', '< 4.30'),
  ('[2H]C([2H])([2H])Oc1cccc(-c2cc(F)c(NC(=O)C3=C(C(=O)O)CCC3)c(F)c2)c1', 'SARS-COV-2', '> 4.70');

---

Measured logD of individual entries
assay: physchem; details: pH 7.4
quantity_name: logD

INSERT INTO measurements (molecule, observed_measurement) VALUES
  ('C[N+](C)(C)CCOP(=O)([O-])OP(=O)([O-])OC[C@H]1O[C@@H](n2ccc(NO)nc2=O)[C@H](O)[C@@H]1O.[Na+] [Example 1, mono sodium salt]', 0.52),
  ('CC(C)C(=O)OC[C@H]1O[C@@H](n2ccc(NO)nc2=O)[C@H](O)[C@@H]1O [molnupiravir, reference compound]', 0.39);

---

assay: A-B permeability (Caco-2, pH 6.5/7.4); conditions: human, Caco-2, pH 6.5, Permeability Mean, A-B, Caco-2, pH 6.5/7.4; test conc. 1.0E−05M
quantity_name: Papp at 10 µM (×10⁻⁶ cm/s)

INSERT INTO assay_data (compound, observed_measurement) VALUES
  ('CC(C)C(=O)OC[C@H]1O[C@@H](n2ccc(NO)nc2=O)[C@H](O)[C@@H]1O [molnupiravir, reference compound]', 0.2),
  ('C[N+](C)(C)CCOP(=O)([O-])OP(=O)([O-])OC[C@H]1O[C@@H](n2ccc(NO)nc2=O)[C@H](O)[C@@H]1O.[Na+]', 33.4);

---

test: B-A permeability (Caco-2, pH 6.5/7.4); details: human, Caco-2, pH 6.5, Permeability 1st, test conc. 1.0E−05M
Overview of reported Papp at 10 µM across a group of compounds:
quantity_name: Papp at 10 µM

INSERT INTO assay_data (compound, observed_measurement) VALUES
  ('C[N+](C)(C)CCOP(=O)([O-])OP(=O)([O-])OC[C@H]1O[C@@H](n2ccc(NO)nc2=O)[C@H](O)[C@@H]1O.[Na+]', '262 nm/s'),
  ('CC(C)C(=O)OC[C@H]1O[C@@H](n2ccc(NO)nc2=O)[C@H](O)[C@@H]1O [molnupiravir, reference compound]', '2.6 nm/s');

---

As shown below, each of these compounds has a reported Papp at 10 µM value.
assay: B-A permeability (Caco-2, pH 6.5/7.4); conditions: human, Caco-2, pH 6.5, Permeability 2nd, test conc. 1.0E−05M
quantity_name: Papp at 10 µM (×10⁻⁶ cm/s)

INSERT INTO assay_data (compound, observed_measurement) VALUES
  ('C[N+](C)(C)CCOP(=O)([O-])OP(=O)([O-])OC[C@H]1O[C@@H](n2ccc(NO)nc2=O)[C@H](O)[C@@H]1O.[Na+]', 21.2),
  ('CC(C)C(=O)OC[C@H]1O[C@@H](n2ccc(NO)nc2=O)[C@H](O)[C@@H]1O [molnupiravir, reference compound]', 0.27);
